- Test system: MSTO-211H (Mesothelioma)
- method.description: Bliss excess, mean over the matrix (fraction); higher = more synergy
reported.metric: Bliss excess
The answer should be a number; do not append a unit.

NC1(C(=O)N[C@@H](CCO)c2ccc(Cl)cc2)CCN(c2ncnc3[nH]ccc23)CC1 [Capivasertib] + C[C@@H]1COCCN1C2=NC(=NC(=C2)C3(CC3)[S@](=N)(=O)C)C4=C5C=CNC5=NC=C4 [AZD6738] (first compound max 10 µM, 7x7, partner max 10 µM) | -0.0088

Field: next molecule
Problem: Name the reported Bliss excess value associated with the molecule COc1cc2c(cc1OCCCCCOc1cc3c(cc1OC)C(=O)N1C=C(C)C[C@H]1C=N3)N=C[C@@H]1CC(C)=CN1C2=O [SG3199] + O=C(c1cc(Cc2n[nH]c(=O)c3ccccc23)ccc1F)N1CCN(C(=O)C2CC2)CC1 [Olaparib] (first compound max 0.001 µM, 7x7, partner max 10 µM)
Result: -0.0175

* * *

- Test system: A172 (Glioblastoma)
- method.description: combination Emax (second highest fraction inhibited in the dose matrix, 72 h); higher = more inhibition; extreme values may be limits of the assay
reported.metric: combination Emax
The answer should be a number; do not append a unit.

Observe how each entry below is paired with its result.
CN(CCO)CC[C@H](CSc1ccccc1)Nc1ccc(S(=O)(=O)NC(=O)c2ccc(N3CCC([C@@H](O)c4ccccc4-c4ccc(Cl)cc4)CC3)cc2)cc1S(=O)(=O)C(F)(F)F [AZD4320] + C1CN(CCC1(C(=O)N[C@@H](CCO)C2=CC=C(C=C2)Cl)N)C3=NC=NC4=C3C=CN4 [Capivasertib] (first compound max 1 µM, 7x7, partner max 3 µM) | 0.158
Cc1c2c(nn1C)CSCc1cc(n(C)n1)CSc1cc(c3ccccc3c1)OCCCc1c(C(=O)O)n(C)c3c-2c(Cl)ccc13 [AZD5991] + C[C@@H](Nc1cc(F)cc(F)c1)c1cc(C(=O)N(C)C)cc2c(=O)cc(N3CCOCC3)oc12 [AZD8186] (first compound max 1 µM, 7x7, partner max 3 µM) | 0.304
COc1nnc2ccc(N3CCC(c4ccc(OCCN5CCN(C)C(=O)[C@H]5C)cc4)CC3)nn12 [AZD5153] + CN(CC[C@H](CSC1=CC=CC=C1)NC2=C(C=C(C=C2)S(=O)(=O)NC(=O)C3=CC=C(C=C3)N4CCC(CC4)[C@H](C5=CC=CC=C5C6=CC=C(C=C6)Cl)O)S(=O)(=O)C(F)(F)F)CCO [AZD4320] (first compound max 1 µM, 7x7, partner max 1 µM) | 0.568
Cc1cc2ncnn2cc1Nc1ncc2c(n1)n(C1CCOCC1)c(=O)n2C [AZD7648] + CN(C)CCCOc1ccc(-c2ccc3ncc4c(c3c2)n(C2CCOCC2)c(=O)n4C)cn1 [AZD0156] (first compound max 10 µM, 7x7, partner max 1 µM) | 0.319
CC(=O)Nc1cccc(-n2c(=O)n(C3CC3)c(=O)c3c(Nc4ccc(I)cc4F)n(C)c(=O)c(C)c32)c1 [Trametinib] + Cc1nc(-c2cn3c(n2)-c2ccc(-c4cnn(C(C)(C)C(N)=O)c4)cc2OCC3)n(C(C)C)n1 [Taselisib] (first compound max 1 µM, 7x7, partner max 10 µM) | 0.761

Problem: Name the reported combination Emax value associated with the molecule NC1(C(=O)N[C@@H](CCO)c2ccc(Cl)cc2)CCN(c2ncnc3[nH]ccc23)CC1 [Capivasertib] + C[C@@H]1COCCN1C2=NC(=NC(=C2)C3(CC3)[S@](=N)(=O)C)C4=C5C=CNC5=NC=C4 [AZD6738] (first compound max 10 µM, 7x7, partner max 10 µM)
Result: 0.779

Problem: Now give it for COc1nnc2ccc(N3CCC(c4ccc(OCCN5CCN(C)C(=O)[C@H]5C)cc4)CC3)nn12 [AZD5153] + C=CCn1c(=O)c2cnc(Nc3ccc(N4CCN(C)CC4)cc3)nc2n1-c1cccc(C(C)(C)O)n1 [AZD1775] (first compound max 1 µM, partner max 1 µM) too.
Result: 0.543

* * *

- Tested on: HCC-827 (Lung Adenocarcinoma)
- method.description: combination Emax (second highest fraction inhibited in the dose matrix, 72 h); higher = more inhibition; extreme values may be limits of the assay
reported.metric: combination Emax
The answer should be a number; do not append a unit.

Observe how each entry below is paired with its result.
CN(C)CCCOc1ccc(-c2ccc3ncc4c(c3c2)n(C2CCOCC2)c(=O)n4C)cn1 [AZD0156] + O=C(c1cc(Cc2n[nH]c(=O)c3ccccc23)ccc1F)N1CCN(C(=O)C2CC2)CC1 [Olaparib] (first compound max 3 µM, partner max 3 µM) | 0.325
COc1cccc2c1C(=O)c1c(O)c3c(c(O)c1C2=O)C[C@@](O)(C(=O)CO)C[C@@H]3O[C@H]1C[C@H](N)[C@H](O)[C@H](C)O1 [Doxorubicin] + Cc1cc2ncnn2cc1Nc1ncc2c(n1)n(C1CCOCC1)c(=O)n2C [AZD7648] (first compound max 1 µM, 7x7, partner max 10 µM) | 0.72
NC1(C(=O)N[C@@H](CCO)c2ccc(Cl)cc2)CCN(c2ncnc3[nH]ccc23)CC1 [Capivasertib] + CC(C)n1c(=O)n(C)c2cnc3cc(F)c(-c4ccc(OCCCN5CCCCC5)nc4)cc3c21 [AZD1390] (first compound max 10 µM, 7x7, partner max 0.3 µM) | 0.322

Field: next molecule
Problem: Name the reported combination Emax value associated with the molecule C=CCn1c(=O)c2cnc(Nc3ccc(N4CCN(C)CC4)cc3)nc2n1-c1cccc(C(C)(C)O)n1 [AZD1775] + C[C@@H]1COCCN1C2=NC(=NC(=C2)C3(CC3)[S@](=N)(=O)C)C4=C5C=CNC5=NC=C4 [AZD6738] (first compound max 1 µM, partner max 10 µM)
Result: 0.609

* * *

Here the recorded Bliss excess is given for each entry.
- Test system: NOMO-1 (Acute Myeloid Leukemia)
- method.description: Bliss excess, mean over the matrix (fraction); higher = more synergy
The answer should be a number; do not append a unit.

NC1(C(=O)N[C@@H](CCO)c2ccc(Cl)cc2)CCN(c2ncnc3[nH]ccc23)CC1 [Capivasertib] + Cn1cnc2c(F)c(Nc3ccc(Br)cc3Cl)c(C(=O)NOCCO)cc21 [Selumetinib] (first compound max 10 µM, 7x7, partner max 10 µM) | 0.0099

Problem: Name the reported Bliss excess value associated with the molecule Cc1cc2ncnn2cc1Nc1ncc2c(n1)n(C1CCOCC1)c(=O)n2C [AZD7648] + C=CCn1c(=O)c2cnc(Nc3ccc(N4CCN(C)CC4)cc3)nc2n1-c1cccc(C(C)(C)O)n1 [AZD1775] (first compound max 10 µM, partner max 1 µM)
Result: 0.0204

* * *

- Tested on: KG-1 (Acute Myeloid Leukemia)
- method.description: combination Emax (second highest fraction inhibited in the dose matrix, 72 h); higher = more inhibition; extreme values may be limits of the assay
Here the recorded combination Emax is given for each entry.
The answer should be a number; do not append a unit.

CN(CCO)CC[C@H](CSc1ccccc1)Nc1ccc(S(=O)(=O)NC(=O)c2ccc(N3CCC([C@@H](O)c4ccccc4-c4ccc(Cl)cc4)CC3)cc2)cc1S(=O)(=O)C(F)(F)F [AZD4320] + CN(C)CCCOc1ccc(-c2ccc3ncc4c(c3c2)n(C2CCOCC2)c(=O)n4C)cn1 [AZD0156] (first compound max 1 µM, 7x7, partner max 1 µM) | 0.952

Problem: Name the reported combination Emax value associated with the compound CN(C)CCCOc1ccc(-c2ccc3ncc4c(c3c2)n(C2CCOCC2)c(=O)n4C)cn1 [AZD0156] + C=CCn1c(=O)c2cnc(Nc3ccc(N4CCN(C)CC4)cc3)nc2n1-c1cccc(C(C)(C)O)n1 [AZD1775] (first compound max 1 µM, partner max 1 µM)
Result: 0.357

Problem: Now give it for CN(CCO)CC[C@H](CSc1ccccc1)Nc1ccc(S(=O)(=O)NC(=O)c2ccc(N3CCC([C@@H](O)c4ccccc4-c4ccc(Cl)cc4)CC3)cc2)cc1S(=O)(=O)C(F)(F)F [AZD4320] + C=CCn1c(=O)c2cnc(Nc3ccc(N4CCN(C)CC4)cc3)nc2n1-c1cccc(C(C)(C)O)n1 [AZD1775] (first compound max 1 µM, partner max 1 µM) too.
Result: 1

* * *

- Tested on: HCT-116 (Colorectal Carcinoma)
- method.description: combination Emax (second highest fraction inhibited in the dose matrix, 72 h); higher = more inhibition; extreme values may be limits of the assay
Here the recorded combination Emax is given for each entry.
The answer should be a number; do not append a unit.

Observe how each entry below is paired with its result.
CC1(C)CCC(CN2CCN(c3ccc(C(=O)NS(=O)(=O)c4ccc(NCC5CCOCC5)c([N+](=O)[O-])c4)c(Oc4cnc5[nH]ccc5c4)c3)CC2)=C(c2ccc(Cl)cc2)C1 [Venetoclax] + COc1cc(Nc2ncc3c(n2)-c2ccc(Cl)cc2C(c2c(F)cccc2OC)=NC3)ccc1C(=O)O [Alisertib] (first compound max 1 µM, 7x7, partner max 10 µM) | 0.581
NC1(C(=O)N[C@@H](CCO)c2ccc(Cl)cc2)CCN(c2ncnc3[nH]ccc23)CC1 [Capivasertib] + COc1nnc2ccc(N3CCC(c4ccc(OCCN5CCN(C)C(=O)[C@H]5C)cc4)CC3)nn12 [AZD5153] (first compound max 10 µM, 7x7, partner max 1 µM) | 0.813
Cc1c2c(nn1C)CSCc1cc(n(C)n1)CSc1cc(c3ccccc3c1)OCCCc1c(C(=O)O)n(C)c3c-2c(Cl)ccc13 [AZD5991] + CC(=O)O[C@H]1C(=O)[C@@]2(C)[C@H]([C@H](OC(=O)c3ccccc3)[C@]3(O)C[C@H](OC(=O)[C@H](O)[C@@H](NC(=O)c4ccccc4)c4ccccc4)C(C)=C1C3(C)C)[C@]1(OC(C)=O)CO[C@@H]1C[C@@H]2O [Paclitaxel] (first compound max 1 µM, 7x7, partner max 3 µM) | 0.981
Cc1c2c(nn1C)CSCc1cc(n(C)n1)CSc1cc(c3ccccc3c1)OCCCc1c(C(=O)O)n(C)c3c-2c(Cl)ccc13 [AZD5991] + CCN(CCO)CCCOc1ccc2c(Nc3cc(CC(=O)Nc4cccc(F)c4)[nH]n3)ncnc2c1 [AZD2811] (first compound max 1 µM, 7x7, partner max 1 µM) | 0.438
COc1cc2ncnc(Nc3ccc(F)c(Cl)c3)c2cc1OCCCN1CCOCC1 [Gefitinib] + CC(C)n1c(=O)n(C)c2cnc3cc(F)c(-c4ccc(OCCCN5CCCCC5)nc4)cc3c21 [AZD1390] (first compound max 10 µM, 7x7, partner max 0.3 µM) | 0.133

Field: next compound
Problem: Name the reported combination Emax value associated with the compound CCN(CCO)CCCOc1ccc2c(Nc3cc(CC(=O)Nc4cccc(F)c4)[nH]n3)ncnc2c1 [AZD2811] + C[C@@H]1COCCN1C2=NC(=NC(=C2)C3(CC3)[S@](=N)(=O)C)C4=C5C=CNC5=NC=C4 [AZD6738] (first compound max 1 µM, 7x7, partner max 10 µM)
Result: 0.562
